Test: Study 2: dose escalation study of IV baclofen in healthy adult volunteers
Type: in vivo, human
Details: human, plasma; cohort 3 (15 mg IV, 20 mg oral); read-out: bioavailability estimate
readout label: bioavailability
Write the numeric value and follow it with the unit.

Given the molecule NCC(CC(=O)O)c1ccc(Cl)cc1 (stereo not shown) [baclofen, 4-amino-3-[4-chlorophenyl] butanoic acid] , what is its reported bioavailability?
81.2%

###

Test: Combined results of the two pilot pharmacokinetic studies (first in human and dose escalation)
Type: in vivo
Conditions: human, plasma, oral, 45 subjects; read-out: inter-patient range of % F
readout label: bioavailability

Given the compound NCC(CC(=O)O)c1ccc(Cl)cc1 (stereo not shown) [baclofen, 4-amino-3-[4-chlorophenyl] butanoic acid] , what is its reported bioavailability?
42 to 132%

These entries and their values trace back to patent US20220202753A1.
